These measurements were taken from ChEMBL document CHEMBL4229548.

Molecular target: Amine oxidase [flavin-containing] B (Rattus norvegicus, UniProt P19643)
Sequence (P19643 whole entry): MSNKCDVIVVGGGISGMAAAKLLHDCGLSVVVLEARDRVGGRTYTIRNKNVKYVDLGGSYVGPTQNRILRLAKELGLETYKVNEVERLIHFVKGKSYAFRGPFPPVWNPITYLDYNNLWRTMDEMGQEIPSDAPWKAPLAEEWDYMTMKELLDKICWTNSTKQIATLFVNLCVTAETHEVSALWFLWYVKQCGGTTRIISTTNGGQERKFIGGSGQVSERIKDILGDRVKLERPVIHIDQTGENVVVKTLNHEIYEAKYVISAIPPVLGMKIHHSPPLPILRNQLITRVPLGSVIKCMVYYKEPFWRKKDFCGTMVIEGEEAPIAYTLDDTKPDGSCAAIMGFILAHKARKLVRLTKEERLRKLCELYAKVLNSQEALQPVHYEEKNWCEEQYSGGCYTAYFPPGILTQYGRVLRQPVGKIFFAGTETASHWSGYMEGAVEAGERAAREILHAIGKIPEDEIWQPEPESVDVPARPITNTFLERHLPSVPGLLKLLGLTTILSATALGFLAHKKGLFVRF
Test: Inhibition of rat MAOB using benzylamine as substrate pretreated for 1200 secs followed by substrate addition and measured after 3600 secs
pIC50: −log10 of the molar value.
test readout: pIC50

Use the examples below as a reference point.
O=C(NCO)c1ccc(Cl)cc1 :: 2.84
O=C(NCCN1CCOCC1)c1ccc(Cl)cc1 [MOCLOBEMIDE] :: 3.11

I. O=C(NCCBr)c1ccc(Cl)cc1
II. O=C(NCCBr)c1ccc(Cl)cn1
pIC50 comparison. Which is larger, I or II ? Indicate which entry you chose by stating its label.
II
